Data credit: patent US10745392B2

# Tested on: UniProtKB Q14524
# Sequence (Q14524 other isoform, or with tags, fused parts or gaps): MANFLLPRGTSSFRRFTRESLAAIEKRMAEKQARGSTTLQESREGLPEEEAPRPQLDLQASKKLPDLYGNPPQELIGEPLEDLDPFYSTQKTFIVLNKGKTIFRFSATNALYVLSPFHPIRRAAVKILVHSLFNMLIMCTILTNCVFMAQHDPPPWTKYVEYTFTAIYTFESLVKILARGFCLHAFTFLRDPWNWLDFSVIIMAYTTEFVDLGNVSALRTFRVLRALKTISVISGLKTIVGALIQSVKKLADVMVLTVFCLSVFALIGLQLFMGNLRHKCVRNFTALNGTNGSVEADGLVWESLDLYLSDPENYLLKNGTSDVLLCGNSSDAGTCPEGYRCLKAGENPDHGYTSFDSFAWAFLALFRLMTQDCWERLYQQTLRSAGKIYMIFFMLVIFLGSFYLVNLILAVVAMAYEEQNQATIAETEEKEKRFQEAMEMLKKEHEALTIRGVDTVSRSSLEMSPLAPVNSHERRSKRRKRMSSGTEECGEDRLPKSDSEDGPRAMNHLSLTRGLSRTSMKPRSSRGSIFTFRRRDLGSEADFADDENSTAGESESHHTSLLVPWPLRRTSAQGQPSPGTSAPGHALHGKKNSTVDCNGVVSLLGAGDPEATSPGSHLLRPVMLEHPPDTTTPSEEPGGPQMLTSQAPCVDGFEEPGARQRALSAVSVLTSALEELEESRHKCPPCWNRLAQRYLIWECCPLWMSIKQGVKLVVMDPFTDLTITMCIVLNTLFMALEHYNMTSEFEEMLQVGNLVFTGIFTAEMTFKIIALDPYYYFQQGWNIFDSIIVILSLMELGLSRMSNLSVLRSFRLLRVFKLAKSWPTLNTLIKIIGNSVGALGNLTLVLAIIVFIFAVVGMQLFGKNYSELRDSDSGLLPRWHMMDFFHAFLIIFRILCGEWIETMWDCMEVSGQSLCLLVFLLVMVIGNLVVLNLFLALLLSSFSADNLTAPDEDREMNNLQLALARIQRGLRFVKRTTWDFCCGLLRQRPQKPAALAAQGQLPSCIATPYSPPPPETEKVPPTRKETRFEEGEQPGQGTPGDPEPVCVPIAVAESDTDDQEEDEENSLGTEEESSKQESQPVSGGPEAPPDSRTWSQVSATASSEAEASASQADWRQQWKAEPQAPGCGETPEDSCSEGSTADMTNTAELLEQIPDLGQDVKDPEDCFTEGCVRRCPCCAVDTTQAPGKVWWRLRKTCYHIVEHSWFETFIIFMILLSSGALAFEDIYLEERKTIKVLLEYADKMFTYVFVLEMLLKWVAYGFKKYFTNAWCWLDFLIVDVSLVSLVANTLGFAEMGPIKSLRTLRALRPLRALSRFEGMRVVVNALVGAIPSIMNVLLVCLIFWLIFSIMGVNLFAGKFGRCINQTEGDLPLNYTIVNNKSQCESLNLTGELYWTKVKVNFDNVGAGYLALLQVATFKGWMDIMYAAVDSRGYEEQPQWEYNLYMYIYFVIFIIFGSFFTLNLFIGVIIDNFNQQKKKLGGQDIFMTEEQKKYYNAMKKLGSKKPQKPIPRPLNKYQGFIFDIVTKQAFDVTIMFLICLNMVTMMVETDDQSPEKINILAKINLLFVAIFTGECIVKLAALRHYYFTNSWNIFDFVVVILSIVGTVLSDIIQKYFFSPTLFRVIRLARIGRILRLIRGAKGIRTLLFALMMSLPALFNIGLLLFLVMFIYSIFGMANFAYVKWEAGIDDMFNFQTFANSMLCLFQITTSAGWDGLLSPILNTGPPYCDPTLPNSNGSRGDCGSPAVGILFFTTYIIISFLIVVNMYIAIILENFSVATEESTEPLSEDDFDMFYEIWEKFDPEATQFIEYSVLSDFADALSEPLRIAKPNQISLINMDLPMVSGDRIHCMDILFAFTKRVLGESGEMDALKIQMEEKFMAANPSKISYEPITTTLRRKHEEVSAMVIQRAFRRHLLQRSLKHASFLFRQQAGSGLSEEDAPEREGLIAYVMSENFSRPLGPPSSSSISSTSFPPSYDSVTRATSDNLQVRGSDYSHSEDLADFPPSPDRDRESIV
# Assay summary: Sodium Influx Assay (Flux) NaV1.5
# Reported conditions: read-out: Flux NaV1.5 IC50; Trex HEK293 cells, ANG2 dye, inhibition of sodium ion influx
Reported endpoint: pIC50
Just so you know, pIC50 here is -log10 of the concentration in molar units; reply with that number alone.

// known answers, use as guide
> print(dat)
                                   compound  obs.value
1  COc1ccc(F)c(CNc2cc(F)c(S(=O)(=O)Nc3cscn3)cc2Cl)c1CN(C)C(C)C [Example 17, 2,2,2-trifluoroacetate]       4.79
2  COc1ccc(F)c(CNc2cc(F)c(S(=O)(=O)Nc3cscn3)c(F)c2)c1CN(C)C(C)C       4.55
3  CC(C)Oc1ccc(F)c(CNc2cc(F)c(S(=O)(=O)Nc3cscn3)c(F)c2)c1CN(C)C(C)C       4.96
4  COc1ccc(F)c(CNc2ccc(S(=O)(=O)Nc3cscn3)c(F)c2F)c1CN(C)C(C)C       5.02

Query compound follows.
# query: pIC50 of entry COc1ccc(F)c(CNc2cc(F)c(S(=O)(=O)Nc3cscn3)cc2C)c1CN(C)C(C)C [Example 18, 2,2,2-trifluoroacetate]
4.93
